- Experimental target: human CDK4 and genetically truncated (1-264) cyclin D3 (Homo sapiens, UniProt P11802)
- Sequence (P11802 whole entry, the tested form may be a part): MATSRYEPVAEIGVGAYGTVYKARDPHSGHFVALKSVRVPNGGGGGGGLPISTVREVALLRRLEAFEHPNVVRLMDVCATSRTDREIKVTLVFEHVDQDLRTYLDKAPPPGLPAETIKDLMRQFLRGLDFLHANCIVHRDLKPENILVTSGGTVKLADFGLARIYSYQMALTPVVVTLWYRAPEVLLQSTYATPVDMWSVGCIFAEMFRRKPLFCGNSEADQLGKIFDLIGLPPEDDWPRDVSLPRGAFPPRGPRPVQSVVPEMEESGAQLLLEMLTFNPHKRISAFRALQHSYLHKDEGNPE
- Sequence (P30281 1-264 partner): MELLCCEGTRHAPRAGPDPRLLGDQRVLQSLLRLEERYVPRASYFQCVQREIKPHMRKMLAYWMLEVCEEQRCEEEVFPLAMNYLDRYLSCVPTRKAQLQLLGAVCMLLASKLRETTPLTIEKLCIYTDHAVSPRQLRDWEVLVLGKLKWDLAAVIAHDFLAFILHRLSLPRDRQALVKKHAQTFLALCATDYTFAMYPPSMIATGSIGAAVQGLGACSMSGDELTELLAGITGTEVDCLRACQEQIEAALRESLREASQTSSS
- Assay protocol: Inhibition of CDK4/Cyclin D Retinoblastoma Kinase Activity
- Experimental context: apparent Ki, CDK4/truncated cyclin D3, Rb fragment substrate, 25 μM ATP
pKi: −log10 of the molar value.
Rule: pKi under 9 gives Not met, otherwise Met.

{"Compound": "CN1CC[C@H](c2ccc(S(=O)(=O)N3CCC(Nc4nc(N)c(C(=O)c5c(F)cccc5F)s4)CC3)cc2)C1", "Qualitative label": "Met"}
{"Compound": "CCOC(=O)N1CCC(Nc2nc(N)c(C(=O)c3c(F)cccc3F)s2)CC1", "Qualitative label": "Not met"}
{"Compound": "CC1CC(NCCS(=O)(=O)N2CCC(Nc3nc(N)c(C(=O)c4c(F)cccc4F)s3)CC2)CC(C)(C)C1 (stereo not shown)", "Qualitative label": "Not met"}
{"Compound": "Cc1ccc(S(=O)(=O)N2CCC(Nc3nc(N)c(C(=O)c4c(F)cccc4F)s3)CC2)cc1", "Qualitative label": "Not met"}
